- Test system: A2780 cells
- Assay explanation: Proliferation assay, Cell Titre-Glo viability (Method 3)
- Assay type: cell-based, human
- Study conditions: Homo sapiens, A2780, 72 h, A2780, 72-hour exposure; read-out: Inhibition of A2780 cell proliferation IC50
- Procedure: A2780 human ovarian carcinoma cells (ECACC #93112519) and non-adherent MOLM-13 human acute myeloid leukemia cells (DSMZ ACC 554) were seeded at a density of 3,000 cell/well (A2780) or 5,000 cells/well (MOLM-13) in a 96-well multititer plate in 150 μL of growth medium supplemented 10% fetal calf serum. […] Cell viability was assessed after 72-hour exposure with the Cell […]
Measured endpoint: IC50 (nM)

[[record]]
compound = "CSCc1cc2nc(c1)OCCCCCc1cc(F)ccc1-c1cc(ncc1F)N2"
censoring_sign = ">"
endpoint_result = 100

[[record]]
compound = "CC(C)(C)OC(=O)N=S(C)(=O)Cc1cc2nc(c1)Nc1cc(c(F)cn1)-c1ccc(F)cc1OCCCCCN2 (racemic)"
censoring_sign = "="
endpoint_result = 27

[[record]]
compound = "CS(=N)(=O)Cc1cc2nc(c1)Nc1cc(c(F)cn1)-c1ccc(F)cc1OCCCCCN2 (racemic)"
censoring_sign = "="
endpoint_result = 5.2

[[record]]
compound = "CN1CCCCOc2cc(F)ccc2-c2nc(ncc2F)Nc2cc(CS(C)(=N)=O)cc1c2 (racemic)"
censoring_sign = "="
endpoint_result = 13

[[record]]
compound = "CSCc1cc2nc(c1F)N(C)CCCCOc1cc(F)ccc1-c1cc(ncc1F)N2"
censoring_sign = ">"
endpoint_result = 100

[[record]]
compound = "CSCc1cc2nc(c1)Nc1cc(c(F)cn1)-c1ccc(F)cc1OCCCN2"
censoring_sign = "="
endpoint_result = 9


This collection of values is drawn from patent US10214542B2.
